- studyTarget: Nuclear receptor subfamily 1 group I member 2 (Homo sapiens)
- testDetails: CYP3A4 induction through human pregnane X receptor (PXR) by small molecules, qHTS assay (AID 1346984); note: nearly all actives have a fitted effect of over 40% in size; for activation: % is set by controls: 0 for no effect and ±100 for the full control effect
- appliedConditions: DPX-2 HepG2 PXR, CYP3A4-luciferin luminescence, 24 h; series mostly up to 46.1 µM
Records with an inconclusive call do not appear. Active and inactive are the calls of the source. Calls come from the whole dose curve; as a rule, active = well fitted activation curve with a large enough effect in the repeat runs; inconclusive = weak or mixed curves; inactive = no such curve, though single readings can be large or run the other way.
Hi! Could you answer with just one of these? yes (1) (active), no (0) (inactive)

Solved entries:
CCN(CC)CCOC(=O)C(c1ccccc1)C1CCCCC1 (configuration not stated): no (0)
OC(C#CCN1CCCC1)(c1ccccc1)c1ccccc1: yes (1)
Nc1ncn([C@H]2C[C@H](O)[C@@H](CO)O2)c(=O)n1: no (0)
CCCCNc1ccc(C(=O)OCCOCCOCCOCCOCCOCCOCCOCCOCCOC)cc1: no (0)
CC(=O)OC[C@H]1O[C@@H](n2ncc(=O)[nH]c2=O)[C@H](OC(C)=O)[C@@H]1OC(C)=O: no (0)
CC(CSC(=O)c1ccccc1)C(=O)N1C[C@@H](Sc2ccccc2)C[C@H]1C(=O)O (some centres not stated): no (0)

Kindly provide the recorded test outcome for the following compound: `COc1ccc(C(=O)N2CCN(CC(=O)N3CCOCC3)CC2)cc1`
no (0)

Kindly provide the recorded test outcome for the following compound: `c1ccc(CNCCNCc2ccccc2)cc1`
no (0)

Kindly provide the recorded test outcome for the following compound: `CN1CCC(=C2c3ccccc3Sc3ccccc32)CC1`
yes (1)

Kindly provide the recorded test outcome for the following compound: C[N+]1(CC2COC(c3ccccc3)(C3CCCCC3)O2)CCCCC1 (configuration not stated)
no (0)

Kindly provide the recorded test outcome for the following compound: COc1cc2c(cc1OC)C(C(C(=O)N(CCc1ccc(OC)c(OC)c1OC)CCc1ccc(OC)c(OC)c1OC)c1ccccc1)=NCC2 (configuration not stated)
no (0)

Kindly provide the recorded test outcome for the following compound: O=C1OC(CN2CCOCC2)CN1/N=C/c1ccc([N+](=O)[O-])o1 (configuration not stated)
no (0)

###

- studyTarget: Nuclear receptor subfamily 1 group I member 2 (Rattus norvegicus)
- testDetails: Rat pregnane X receptor (rPXR) activation by small molecules, qHTS assay (AID 1346983); note: % is set by controls: 0 for no effect and ±100 for the full control effect; nearly all actives have a fitted effect of over 20% in size
- appliedConditions: rPXR luciferase reporter cells, One-Glo luminescence, 24 h; stronger effect = higher value
Inconclusive results are not listed.
measurementLabel: max activation (%)
Report as a plain number; the unit % is understood.

Solved entries (count: 3):
CN(C)CCN(Cc1ccccc1)c1ccccn1: 2.98
O=C1c2ccccc2S(=O)(=O)N1CCCCN1CCN(c2ncccn2)CC1: 0.873
O=C1OC(CN2CCOCC2)CN1/N=C/c1ccc([N+](=O)[O-])o1 (centres undefined): -7.02

Query compound follows.
Entry `Nc1c(CC(=O)O)cccc1C(=O)c1ccc(Br)cc1` — recorded max activation = -2.12

###

- studyTarget: Peroxisome proliferator-activated receptor delta (Homo sapiens) (UniProt Q03181)
- Sequence (Q03181 whole entry, looked up): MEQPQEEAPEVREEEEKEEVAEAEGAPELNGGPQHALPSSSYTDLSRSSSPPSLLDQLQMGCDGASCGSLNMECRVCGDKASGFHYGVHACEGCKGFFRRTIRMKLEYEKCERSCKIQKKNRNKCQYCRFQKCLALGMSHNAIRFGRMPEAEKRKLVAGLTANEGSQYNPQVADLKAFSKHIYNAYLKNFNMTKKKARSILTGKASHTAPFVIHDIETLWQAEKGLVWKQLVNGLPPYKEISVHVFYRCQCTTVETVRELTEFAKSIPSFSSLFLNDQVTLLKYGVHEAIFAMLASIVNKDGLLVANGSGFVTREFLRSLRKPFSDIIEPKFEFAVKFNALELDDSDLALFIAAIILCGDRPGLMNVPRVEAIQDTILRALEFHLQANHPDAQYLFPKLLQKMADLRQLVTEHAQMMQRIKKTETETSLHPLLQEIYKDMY
- testDetails: qHTS assay to identify small molecule agonists of the peroxisome proliferator-activated receptor delta (PPARd) signaling pathway (AID 743212);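 note: HEK293H cells with PPARd UAS beta-lactamase reporter GeneBLAzer system; % is set by controls: 0 for no effect and ±100 for the full control effect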
- appliedConditions: HEK293H PPARd-UAS-bla, beta-lactamase FRET ratio, 17 h; series mostly up to 62.6 µM
Results filed as inconclusive are left out. Active and inactive are the calls of the source. The call rests on the fitted dose curve.
Hi! Could you answer with just one of these? true (1) = active, false (0) = inactive

CCOC(=O)c1cccnc1: false (0)
CCNc1cc(O)ccc1C: false (0)
O=C(CS)Nc1ccccc1: false (0)
CCCCNc1ccc(C(=O)OCCOCCOCCOCCOCCOCCOCCOCCOCCOC)cc1: false (0)

Kindly provide the recorded test outcome for the following compound: `C/C=C/C=C/CO`
false (0)

Kindly provide the recorded test outcome for the following compound: `CCOC(=O)NCCOc1ccc(Oc2ccccc2)cc1`
false (0)

Kindly provide the recorded test outcome for the following compound: `c1ccc(CNCCNCc2ccccc2)cc1`
false (0)

Kindly provide the recorded test outcome for the following compound: `CC(=O)c1cccc([N+](=O)[O-])c1`
false (0)

Kindly provide the recorded test outcome for the following compound: O=CC1CC=CCC1 (stereo not given)
false (0)

Kindly provide the recorded test outcome for the following compound: `ClCCOCCOCCCl`
false (0)
